Test system: COLO 205 colon
Assay: NCI tumour cell line growth inhibition, 48 h
Class 1: TGI at least 30 µM. Class -1: TGI below 30 µM.

Given CC(C)(C)c1ccc(OCCOCCOc2ccc(C(C)(C)C)cc2S(N)(=O)=O)c(S(N)(=O)=O)c1 , state whether its TGI is at least 30 µM.
1

Given O=C(c1c(F)c(F)c(F)c(F)c1F)n1c(=S)n(C(=O)c2c(F)c(F)c(F)c(F)c2F)c2ccccc21 , state whether its TGI is at least 30 µM.
1

Given CCCCCCCCCCCCOC1C(C(COC2OC(C(O)CO)C3OC(C)(C)OC23)OC(=O)Nc2ccccc2)OC2OC(C)(C)OC21 (stereo not drawn) , state whether its TGI is at least 30 µM.
-1

Given Oc1c(Br)cc(Cl)cc1C(c1cc(Cl)cc(Br)c1O)C(Cl)(Cl)Cl , state whether its TGI is at least 30 µM.
-1

Given CC(C)c1ccc2c(c1)CCC1C2CCCC1(C)NCc1ccccc1 (stereo not drawn) , state whether its TGI is at least 30 µM.
-1

Given CN1S(=O)(=O)N(C)P12(N=P(CP(=NP13(N(C)S(=O)(=O)N1C)N(C)S(=O)(=O)N3C)(c1ccccc1)c1ccccc1)(c1ccccc1)c1ccccc1)N(C)S(=O)(=O)N2C , state whether its TGI is at least 30 µM.
1

Given CN(/N=C/c1ccccn1)C1=NCCN1 , state whether its TGI is at least 30 µM.
1

Given O[C@@H]1[C@H](OC2c3ccccc3-c3ccccc32)[C@H](OCc2ccccc2)[C@@H]2OC[C@H]1O2 , state whether its TGI is at least 30 µM.
1

Given CCOc1ccc(NC(=O)C(=O)C(/C(=N/N)C(=O)OC)c2nc3ccc([N+](=O)[O-])cc3[nH]c2=O)cc1 (stereo not drawn) , state whether its TGI is at least 30 µM.
1

Given COc1ccc(NC(=S)c2ccc([N+](=O)[O-])o2)cc1 , state whether its TGI is at least 30 µM.
-1

Given CC(C)(C)OC(=O)/N=C/c1c(O)c2ccccc2oc1=O , state whether its TGI is at least 30 µM.
1

Given CCCCCNC(=O)CCCCCCCCCCCNC(=O)CCCCCCCCCCN1C=CC(=CC=C2C=CC(=O)C=C2)C=C1 , state whether its TGI is at least 30 µM.
-1

Given C/C(=C\c1ccccc1)C(O)C(=O)c1nc2ccc(Cl)cc2[nH]c1=O (stereo not drawn) , state whether its TGI is at least 30 µM.
1

Given CC1=N/C(=C\c2ccc(C)cc2)C(=O)O1 , state whether its TGI is at least 30 µM.
1

Given COc1cc2c(cc1OCCN1CCN(CCN3C(=O)c4cccc5cccc(c45)C3=O)CC1)N=C[C@@H]1CCCN1C2=O , state whether its TGI is at least 30 µM.
1

Given O=C1CSC(c2cc3cc(Br)ccc3nc2Cl)N1c1ccc(Cl)cc1 (stereo not drawn) , state whether its TGI is at least 30 µM.
1

Given FC(F)(F)c1cccc(CNC2CCN(CCc3ccccc3)CC2)c1 , state whether its TGI is at least 30 µM.
1

---

Tested on: SK-MEL-5 melanoma
Experiment: NCI tumour cell line growth inhibition, 48 h
Entries annotated with measured GI50

Previously resolved entries follow.
| COMPOUND | GI50 |
| --- | --- |
| COc1cc2c(cc1OCCN1CCN(CCN3C(=O)c4cccc5cccc(c45)C3=O)CC1)N=C[C@@H]1CCCN1C2=O | 16000 nM |
| CCCCCCCCCCN=C(N)c1ccc(N2CCN(c3ccc(C(N)=NCCCCCCCCCC)cc3)CC2)cc1 | 2190 nM |

The record that follows has no GI50 shown yet.
Note GI50 for the compound shown: O=C(CCN1CCOCC1)Nc1ccc(Cn2nnc3c2C(=O)c2nnn(Cc4ccc(NC(=O)CCN5CCOCC5)cc4)c2C3=O)cc1
590 nM
